Biological target: WEE1 (Homo sapiens, UniProt P30291+Q96SW2)
Construct: C-terminal ePL-tagged (DiscoverX, Fremont, CA) full-length WEE1 expression construct; expressed in transfected cells; host or cells: LentiX-HEK293T (Invitrogen), lentiviral transduction; co-expressing GSPT1-GN (G576N, lacking the first 158 amino acids)
Test: WEE1-ePL degradation assay (LentiX-WEE1-ePL-GSPT1-ND cells, InCELL Hunter luminescence, 4 h)
Type: cell-based
Conditions: 293T-LentiX WEE1-ePL cells, lower limit of the fit (0 = luciferase inhibitor, Ymax = DMSO control)
QUANTITY: 293T-LentiX WEE1-ePL Degradation 4 hr (Ymin)

- COMPOUND: "O=C1CCC(N2Cc3cc(O[C@H]4CCN(Cc5ccc6c(c5)CCCN6)C4)ccc3C2=O)C(=O)N1 (some centres unmarked)"
  EXPERIMENTAL_VALUE: 79
- COMPOUND: "O=C1CCC(N2Cc3cc(O[C@H]4CCN(Cc5ccc6ncc(C7COC7)cc6c5)C4)ccc3C2=O)C(=O)N1 (some centres unmarked)"
  EXPERIMENTAL_VALUE: 30
- COMPOUND: "O=C1CCC(N2Cc3cc(O[C@H]4CCN(Cc5cccc6nccnc56)C4)ccc3C2=O)C(=O)N1 (some centres unmarked)"
  EXPERIMENTAL_VALUE: 53.34
- COMPOUND: "CO[C@@H]1CN(Cc2ccc3nc(C4CCOCC4)ccc3c2)C[C@H]1Oc1ccc2c(c1)CN(C1CCC(=O)NC1=O)C2=O (some centres unmarked)"
  EXPERIMENTAL_VALUE: 37.67
- COMPOUND: "O=C1CCC(N2Cc3cc(O[C@H]4CCN(Cc5ccc6ncc(F)cc6c5F)C4)ccc3C2=O)C(=O)N1 (some centres unmarked)"
  EXPERIMENTAL_VALUE: 28.96
- COMPOUND: "C[C@@H]1CN(Cc2ccc3nc([C@H]4CCOC(C)(C)C4)ccc3c2)C[C@H]1Oc1ccc2c(c1)CN(C1CCC(=O)NC1=O)C2=O (some centres unmarked)"
  EXPERIMENTAL_VALUE: 24.37
- COMPOUND: "Cc1nc(N2CCOCC2)nc2ccc(CN3CC[C@H](Oc4ccc5c(c4)CN(C4CCC(=O)NC4=O)C5=O)C3)cc12 (some centres unmarked)"
  EXPERIMENTAL_VALUE: 36
- COMPOUND: "O=C1CCC(N2Cc3cc(O[C@H]4CCN(Cc5ccc6ncc(F)cc6c5)C4)ccc3C2=O)C(=O)N1 (some centres unmarked)"
  EXPERIMENTAL_VALUE: 34.66

----------
Biological target: WEE1 (Homo sapiens, UniProt P30291+Q96SW2)
Construct: C-terminal ePL-tagged (DiscoverX, Fremont, CA) full-length WEE1 expression construct; expressed in transfected cells; host or cells: LentiX-HEK293T (Invitrogen), lentiviral transduction; co-expressing GSPT1-GN (G576N, lacking the first 158 amino acids)
Assay: WEE1-ePL degradation assay (LentiX-WEE1-ePL-GSPT1-ND cells, InCELL Hunter luminescence, 4 h)
Format: cell-based
Conditions: 293T-LentiX WEE1-ePL cells, lower limit of the fit (0 = luciferase inhibitor, Ymax = DMSO control)
Catalogue of compounds with associated 293T-LentiX WEE1-ePL Degradation 4 hr (Ymin)
QUANTITY: 293T-LentiX WEE1-ePL Degradation 4 hr (Ymin)

- COMPOUND: "O=C1CCC(N2Cc3cc(O[C@H]4CCN(Cc5ccc6c(c5)OC(=O)CN6)C4)ccc3C2=O)C(=O)N1 (stereo partly shown)"
  MEASURED_TARGET: "WEE1 (Homo sapiens, UniProt P30291+Q96SW2)"
  EXPERIMENTAL_VALUE: 80
- COMPOUND: "O=C1CCC(N2Cc3cc(O[C@H]4CCN(Cc5ccc6nc(N7CCCCC7=O)ccc6c5)C4)ccc3C2=O)C(=O)N1 (stereo partly shown)"
  MEASURED_TARGET: "WEE1 (Homo sapiens, UniProt P30291+Q96SW2)"
  EXPERIMENTAL_VALUE: 31.5
- COMPOUND: "O=C1CCC(N2Cc3cc(O[C@H]4CCN(Cc5ccc6nc(Cl)ccc6c5)C4)ccc3C2=O)C(=O)N1 (stereo partly shown)"
  MEASURED_TARGET: "WEE1 (Homo sapiens, UniProt P30291+Q96SW2)"
  EXPERIMENTAL_VALUE: 29.2
- COMPOUND: "O=C1CCC(N2Cc3cc(O[C@H]4CCN(Cc5ccc6nc(N7C[C@H]8CC[C@@H](C7)O8)ncc6c5)C4)ccc3C2=O)C(=O)N1 (stereo partly shown)"
  MEASURED_TARGET: "WEE1 (Homo sapiens, UniProt P30291+Q96SW2)"
  EXPERIMENTAL_VALUE: 35
- COMPOUND: "O=C1CC[C@H](N2Cc3cc(O[C@H]4CCN(Cc5ccc6nc(N7CCCC7=O)ccc6c5)C4)ccc3C2=O)C(=O)N1"
  MEASURED_TARGET: "WEE1 (Homo sapiens, UniProt P30291+Q96SW2)"
  EXPERIMENTAL_VALUE: 40
- COMPOUND: "O=C1CCC(N2Cc3cc(O[C@H]4CCN(Cc5ccc6nc(N7CCCC7=O)ccc6c5)C4)ccc3C2=O)C(=O)N1 (stereo partly shown)"
  MEASURED_TARGET: "WEE1 (Homo sapiens, UniProt P30291+Q96SW2)"
  EXPERIMENTAL_VALUE: 31
- COMPOUND: "CO[C@@H]1CCC[C@@H](c2ccc3cc(CN4CC[C@H](Oc5ccc6c(c5)CN(C5CCC(=O)NC5=O)C6=O)C4)ccc3n2)C1 (stereo partly shown)"
  MEASURED_TARGET: "WEE1 (Homo sapiens, UniProt P30291+Q96SW2)"
  EXPERIMENTAL_VALUE: 29

----------
Target: WEE1 (Homo sapiens, UniProt P30291+Q96SW2)
Construct: C-terminal ePL-tagged (DiscoverX, Fremont, CA) full-length WEE1 expression construct; expressed in transfected cells; host or cells: LentiX-HEK293T (Invitrogen), lentiviral transduction; co-expressing GSPT1-GN (G576N, lacking the first 158 amino acids)
Experiment: WEE1-ePL degradation assay (LentiX-WEE1-ePL-GSPT1-ND cells, InCELL Hunter luminescence, 4 h)
Type: cell-based
Conditions: 293T-LentiX WEE1-ePL cells, read-out: 293T-LentiX WEE1-ePL Degradation 4 hr (EC50)
Friendly reminder: DC50 below 10 nM is TRUE, at or above is FALSE.

- COMPOUND: "O=C1CCC(N2Cc3cc(O[C@H]4CCN(Cc5ccc6nc(CC(F)(F)F)ccc6c5)C4)ccc3C2=O)C(=O)N1 (stereo partly drawn)"
  GROUP: "TRUE"
- COMPOUND: "O=C1CCC(N2Cc3cc(O[C@H]4CCN(Cc5cccc6nccn56)C4)ccc3C2=O)C(=O)N1 (stereo partly drawn)"
  GROUP: "FALSE"
- COMPOUND: "O=C1CCC(N2Cc3cc(O[C@H]4CCN(Cc5cc6ncccc6cn5)C4)ccc3C2=O)C(=O)N1 (stereo partly drawn)"
  GROUP: "FALSE"
- COMPOUND: "O=C1CC[C@H](N2Cc3cc(O[C@H]4CCN(Cc5ccc6nc(N7CCOCC7)ncc6c5)C4)ccc3C2=O)C(=O)N1"
  GROUP: "TRUE"
- COMPOUND: "O=C1CCC(N2Cc3cc(O[C@H]4CCN(Cc5ccc6nc(N7CCC78COC8)ncc6c5)C4)ccc3C2=O)C(=O)N1 (stereo partly drawn)"
  GROUP: "TRUE"
- COMPOUND: "O=C1CCC(N2Cc3cc(O[C@@H]4CN(Cc5ccc6nc([C@H]7CCOC7)ccc6c5)C[C@H]4C(F)(F)F)ccc3C2=O)C(=O)N1 (stereo partly drawn)"
  GROUP: "TRUE"
- COMPOUND: "O=C1CCC(N2Cc3cc(O[C@H]4CCN(Cc5ccc6nc(N7CCC[C@]78CCOC8)ncc6c5)C4)ccc3C2=O)C(=O)N1 (stereo partly drawn)"
  GROUP: "FALSE"
- COMPOUND: "Cc1nc(N2CCOCC2)nc2ccc(CN3CC[C@H](Oc4ccc5c(c4)CN(C4CCC(=O)NC4=O)C5=O)C3)cc12 (stereo partly drawn)"
  GROUP: "TRUE"
- COMPOUND: "O=C1CC[C@H](N2Cc3cc(O[C@H]4CCN(Cc5ccc6nc(C7CCOCC7)ccc6c5Cl)C4)ccc3C2=O)C(=O)N1"
  GROUP: "TRUE"
- COMPOUND: "O=C1CCC(N2Cc3cc(O[C@@H]4CN(Cc5ccc6nc([C@@H]7CCOC7)ccc6c5)C[C@H]4F)ccc3C2=O)C(=O)N1 (stereo partly drawn)"
  GROUP: "TRUE"
- COMPOUND: "COC1CN(c2ccc3cc(CN4CC[C@H](Oc5ccc6c(c5)CN(C5CCC(=O)NC5=O)C6=O)C4)ccc3n2)C1 (stereo partly drawn)"
  GROUP: "TRUE"
- COMPOUND: "O=C1CCC(N2Cc3cc(O[C@@H]4CCN(Cc5ccc6nc([C@@H]7CCOC7)ncc6c5)C4)ccc3C2=O)C(=O)N1 (relative stereo)"
  GROUP: "FALSE"
- COMPOUND: "CO[C@H]1C[C@H](c2ccc3cc(CN4CC[C@H](Oc5ccc6c(c5)CN(C5CCC(=O)NC5=O)C6=O)C4)ccc3n2)C1 (stereo partly drawn) [drawing 579]"
  GROUP: "FALSE"
- COMPOUND: "CN1CCc2c(cncc2CN2CC[C@H](Oc3ccc4c(c3)CN(C3CCC(=O)NC3=O)C4=O)C2)C1 (stereo partly drawn)"
  GROUP: "FALSE"
- COMPOUND: "CC(C)(O)c1ccc2cc(CN3CC[C@H](Oc4ccc5c(c4)CN(C4CCC(=O)NC4=O)C5=O)C3)ccc2n1 (stereo partly drawn)"
  GROUP: "TRUE"
